- assayedTarget: HIV-1 reverse transcriptase L100I+K103N mutant (Human immunodeficiency virus type 1 group M subtype B, UniProt P03366, K702N/L699I)
- Construct: made in house; host or cells: E. coli BL21 (DE3)
- testDetails: HIV-1 reverse transcriptase SPA (scintillation proximity) assay with mutant RT
- Assay type: biochemical
- measurementConditions: K103N double escape mutant
quantity: pIC50
Quick note: pIC50 means taking -log10 of the concentration in moles per liter.

Please review the entries below; each comes with its answer.
Measured pIC50, `Nc1ccc(Oc2ccc(NC(=O)N[C@@H]3[C@@H]4COc5c(F)ccc(F)c5[C@@H]43)nc2)cc1` : 7.15

Memo: O=C(Nc1ccc(Oc2ccccc2)cn1)N[C@@H]1[C@@H]2COc3c(F)ccc(F)c3[C@@H]21 (relative stereo) [Prior art, reference compound] , reported pIC50: 6.22

Quick note, pIC50 for `NC(=O)c1ccc(Oc2ccc(NC(=O)N[C@@H]3[C@@H]4COc5c(F)ccc(F)c5[C@@H]43)nc2)cc1` landed at 7.55

***
The reported pIC50 of the compound `NNC(=O)c1ccc(Oc2ccc(NC(=O)N[C@@H]3[C@H]4COc5c(F)ccc(F)c5[C@H]43)nc2)cc1` was 8.00

Entry `CNC(=O)c1ccc(Oc2ccc(NC(=O)N[C@@H]3[C@@H]4COc5c(F)ccc(F)c5[C@@H]43)nc2)cn1` , pIC50 reported as 7.15

# pIC50 (compound: `CS(=O)(=O)c1ccc(Oc2ccc(NC(=O)N[C@@H]3[C@@H]4COc5c(F)ccc(F)c5[C@@H]43)nc2)cc1` ) is 7.40

Value of measured pIC50 for the entry `CS(=O)(=O)Nc1ccc(Oc2ccc(NC(=O)N[C@@H]3[C@@H]4COc5c(F)ccc(F)c5[C@@H]43)nc2)cc1` : 7.22

Lookup result for `NS(=O)(=O)c1ccc(Oc2ccc(NC(=O)N[C@@H]3[C@@H]4COc5c(F)ccc(F)c5[C@@H]43)nc2)cc1` ; measured pIC50: 7.54

The reported pIC50 of the compound `NC(=O)c1ccc(Oc2ccc(NC(=O)N[C@@H]3[C@@H]4COc5c(F)ccc(F)c5[C@@H]43)nc2)cn1` was 7.10

The recorded pIC50 for `O=C(Nc1ccc(Oc2ccc(-n3cncn3)cc2)cn1)N[C@@H]1[C@@H]2COc3c(F)ccc(F)c3[C@@H]21` is 7.22

Note to self: pIC50 recorded for `CC(=O)Nc1ccc(Oc2ccc(NC(=O)N[C@@H]3[C@H]4COc5c(F)ccc(F)c5[C@H]43)nc2)cc1` was 7.40

The compound listed as `CNC(=O)c1ccc(Oc2ccc(NC(=O)N[C@@H]3[C@@H]4COc5c(F)ccc(F)c5[C@@H]43)nc2)cc1` shows pIC50 equal to 7.59

pIC50 reported for this compound `O=C(Nc1ccc(Oc2ccc(C(=O)NC3CC3)cc2)cn1)N[C@@H]1[C@H]2COc3c(F)ccc(F)c3[C@H]21` : 7.57
